The reader will find reported IC50 values listed item by item below.
# Tested on: S. Typhi PhoP-promoter GFP reporter, fluorescence, 4 h
# experimentSummary: PhoP regulon inhibitor project modified counter assay, GFP fluorescence readout, dose response (AID 1985)

compound: COc1ccc(Cc2nnc(N/N=C/c3ccc(O)cc3)[nH]c2=O)cc1OC
IC50: 54.8 µM
--
compound: Cc1ccc2nc(N(CCCN(C)C)C(=O)c3sc4ccccc4c3Cl)sc2c1
IC50: 54.7 µM
--
compound: CC(C(=O)NC1C=CS(=O)(=O)C1)N1C(=O)/C(=C/c2cccc(Cl)c2)SC1=S (stereo unspecified)
IC50: 33.6 µM
--
compound: C[C@H]1COc2c(C3(N)CC3)c(F)cc3c(=O)c(C(=O)O)cn1c23
IC50: < 0.23 µM
--
compound: CC[C@@H](C)[C@H](CN[C@H](CNC)C(C)C)NC[C@@H](C)c1ccc(CC(C)C)cc1
IC50: 61 µM
--
compound: O=C(NC1CCCC1)c1ccc(Br)s1
IC50: 34 µM
--
compound: COC(=O)N/N=C/c1c[n+]([O-])c2ccccc2[n+]1[O-]
IC50: 101 µM
--
compound: CN1CCc2nc(SCC(=O)Nc3cccc(F)c3)c(C#N)c(-c3cccs3)c2C1
IC50: 136 µM
--
compound: CCOC(=O)N1CCC(=NNc2ccnc3cc(Cl)ccc23)CC1
IC50: 61.2 µM
--
compound: CO[C@H]1/C=C/O[C@@]2(C)Oc3c(C)c(O)c4c(O)c(c(C=NN5CCN(C)CC5)c(O)c4c3C2=O)NC(=O)/C(C)=C\C=C\[C@H](C)[C@H](O)[C@@H](C)[C@@H](O)[C@@H](C)[C@H](OC(C)=O)[C@@H]1C
IC50: 32.6 µM
--
compound: CC(=O)Nc1cccc(NC(=O)Nc2ccc(F)cc2F)c1
IC50: 114 µM
--
compound: CCN(CC)C(=S)SSC(=S)N(CC)CC
IC50: 21.8 µM
--
compound: COc1ccc(Nc2ccnc3ccccc23)cc1
IC50: 85.8 µM
--
compound: CN1CCN(C2=Cc3ccccc3Sc3cc(F)c(Cl)cc32)CC1
IC50: 106 µM
--
compound: OC(CNCCc1ccc(Cl)cc1)COc1cc(Cl)ccc1Cl (stereo unspecified)
IC50: 36.6 µM
--
compound: O=C(/C=C/c1ccccc1)c1cc(Br)ccc(=O)c1O
IC50: 51.1 µM
--
compound: COc1ccc(C(=O)NC(=S)NNC(=O)c2cccc(C)c2)cc1
IC50: 46.8 µM
--
compound: OC(CNCCc1ccccc1)COc1ccc(OCC(O)CNCCc2ccccc2)cc1 (stereo unspecified)
IC50: 21.2 µM
--
compound: O=c1[nH][nH]c(-c2ccccc2O)c1C(C[N+](=O)[O-])c1ccc(Br)cc1 (stereo unspecified)
IC50: 71.7 µM
--
compound: Nc1nonc1C(=O)NCCN=Cc1cc(Cc2ccccc2)cc(Br)c1O
IC50: 83.3 µM
--
compound: Cc1ccc(C(=O)NNC(=S)NC(=O)COc2ccccc2)cc1
IC50: 47.5 µM

====

# Tested on: S. Typhi PhoP-promoter GFP reporter, fluorescence, 4 h
# experimentSummary: PhoP regulon inhibitor project modified counter assay, GFP fluorescence readout, dose response (AID 1985)
pIC50: −log10 of the molar value.
endpointLabel: pIC50

compound: Cc1ccc(OCC(=O)N/N=C/c2ccc([N+](=O)[O-])o2)cc1
numericReadout: 4.54

compound: CCCCc1c(O)nc(SCC(=O)Nc2ccc3c(c2)CCC3)[nH]c1=O
numericReadout: 4.51

compound: C[n+]1c2n(c3ccccc31)N=C(c1ccc(-c3ccccc3)cc1)CS2
numericReadout: 4.42

compound: O=C(CCc1ccccc1)NNC(=O)c1ccccn1
numericReadout: 4.00

compound: Cc1ccsc1/C=N/Nc1ccc(C(=O)O)cc1
numericReadout: 4.03

compound: Cc1occc1C(=O)N/N=C/C=C/c1ccccc1
numericReadout: 4.38

compound: COc1nsnc1NS(=O)(=O)c1ccc(NC(=S)NC(=O)c2cccnc2)cc1
numericReadout: 4.63

compound: O=C(N/N=C/c1ccc([N+](=O)[O-])s1)C(O)c1ccccc1 (centres undefined)
numericReadout: 4.48

compound: O=C(Nc1ccc2nc(-c3ccc(Br)o3)[nH]c2c1)c1ccco1
numericReadout: 3.89

compound: CCn1cc(C(=O)NCC(C)C)c(=O)c2cc(F)c(N3CCN(C)CC3)cc21
numericReadout: 4.51

compound: Cc1cc([N+](=O)[O-])cc(/C=N/n2c(C)nc3ccccc3c2=O)c1O
numericReadout: 4.27

compound: O=C(CC(=O)c1ccccc1O)c1cccc(F)c1
numericReadout: 4.42

compound: COc1ccccc1N1CCN(Cc2ccc(O)c3ncccc23)CC1
numericReadout: 4.14

compound: O=C(CCNC(=O)c1ccco1)Nc1ccc(SC(F)F)cc1
numericReadout: 4.13

compound: N#C/C(=N\Nc1ccc([N+](=O)[O-])cc1)C(N)=S
numericReadout: 3.96

compound: Cn1c(-c2ccc3c(c2)OCO3)cnc1NCc1ccc(Cl)cc1
numericReadout: 3.85

compound: OCCNc1nc(Nc2ccc(Br)cc2)nc2ccccc12
numericReadout: 4.72

compound: CN(C)CCCN1c2ccccc2Sc2ccccc21
numericReadout: 3.99

compound: O=C(Cn1nc(CNc2ccc(Br)cc2)[n+]2c1CCCCC2)c1ccc([N+](=O)[O-])cc1
numericReadout: 4.10

compound: COc1ccccc1CNCCc1ccc(F)cc1
numericReadout: 4.44

compound: Cc1ccc(N/C(=C\C(=O)c2ccccc2)C(=O)O)cc1
numericReadout: 4.76

compound: CCCCCCCCCCCCCCCC[N+](C)(C)CCN(Cc1ccc(OC)cc1)c1ncccn1
numericReadout: 4.62

compound: CCCCCCCCCCOC(=O)C[N+](C)(C)CC1CCCCC1O (centres undefined)
numericReadout: 4.19

compound: Clc1cccc(/C=N\Nc2nccs2)c1
numericReadout: 4.23
